Values compiled from patent US11498896B2.

molecular target: human D2R/β-arrestin (Homo sapiens (Human), UniProt P14416); experiment: cell-based; conditions: β-arrestin Antagonist, CHO-K1 cells expressing human D2R/β-arrestin; antagonist mode, quinpirole 130 nM
Sequence (P14416 whole entry): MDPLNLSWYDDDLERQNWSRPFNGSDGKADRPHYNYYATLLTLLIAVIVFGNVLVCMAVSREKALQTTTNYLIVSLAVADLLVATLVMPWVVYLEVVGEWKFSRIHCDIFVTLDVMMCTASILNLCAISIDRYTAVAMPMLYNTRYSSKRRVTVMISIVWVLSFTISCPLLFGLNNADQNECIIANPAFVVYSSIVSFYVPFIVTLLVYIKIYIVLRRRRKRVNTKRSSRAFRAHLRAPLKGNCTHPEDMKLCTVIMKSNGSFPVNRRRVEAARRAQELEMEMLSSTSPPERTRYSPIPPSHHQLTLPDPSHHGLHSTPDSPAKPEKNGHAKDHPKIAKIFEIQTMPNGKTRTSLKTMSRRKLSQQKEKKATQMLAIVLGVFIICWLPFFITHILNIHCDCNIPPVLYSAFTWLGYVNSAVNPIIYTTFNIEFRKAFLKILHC
pIC50: −log10 of the molar value.
measurement_name: pIC50

The examples below pair each entry with its known result.
>>> reported_result("CC1(Oc2cccc(C(F)(F)F)c2)CCN(CCOc2ccccc2F)C1 (centres unmarked)")
"4.52 to 5.00"
>>> reported_result("CC1(Oc2ccccc2)CCN(CCOc2ccncc2)CC1")
"< 4.52"
>>> reported_result("CC1(Oc2ccc(Cl)cc2)CCN(CCOc2ccc3ccccc3c2)C1 (centres unmarked)")
"5.00 to 6.00"
>>> reported_result("CC(=O)N(CCN1CCC(C)(Oc2ccc(Cl)cc2)CC1)c1ccccc1C(F)(F)F")
"< 4.52"

Hello, please tell me recorded pIC50 for this one: CC1(Oc2ccccc2)CCN(CCOc2ccccc2S(C)(=O)=O)CC1
6.00 to 7.00
